MEASURED_TARGET: Kras and SOS1 (biotin-tagged human Kras loaded with GDP, His-tagged human SOS1) (Homo sapiens, UniProt P01116, G12D)
Construct: made in house; host or cells: E. coli (stated for Kras only)
Sequence (P01116 1-188 isoform P01116-2 G12D): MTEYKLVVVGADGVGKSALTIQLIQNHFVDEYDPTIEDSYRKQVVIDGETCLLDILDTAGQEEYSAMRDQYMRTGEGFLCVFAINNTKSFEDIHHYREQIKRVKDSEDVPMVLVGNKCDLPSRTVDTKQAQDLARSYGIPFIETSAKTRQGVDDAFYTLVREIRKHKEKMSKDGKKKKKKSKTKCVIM
PROTOCOL_DESCRIPTION: Protein-protein interaction inhibition between Kras and SOS1 (KrasGl2D-SOS PPI) using AlphaScreen
Format: binding
COND: AlphaScreen; biotin-tagged human Kras loaded with GDP, His-tagged human SOS1; read-out: KRAS G12D-SOS PPI IC50
Starred links: 1 amine or outer side, 2 acyl side, 3 side chain; linkers in the order of their positions; H or OH if unused. Positions of bridges follow the written chain, without caps; N, C: chain ends. Non-standard residues stand in square brackets, D forms with d. Residues, ends and D or L forms follow the SMILES beside them. *: point of attachment. hPhe(3-F,4-CF3) = N[C@@H](CCc1ccc(C(F)(F)F)c(F)c1)C(=O)O; NMePhe(4-CF3) = CN[C@@H](Cc1ccc(C(F)(F)F)cc1)C(=O)O; NMePhe(4-Cl) = CN[C@@H](Cc1ccc(Cl)cc1)C(=O)O; NMedβ3hAla = C[C@H](CC(=O)[*:2])N(C)[*:1]; Phe(3-I) = N[C@@H](Cc1cccc(I)c1)C(=O)O; NMeCha = CN[C@@H](CC1CCCCC1)C(=O)O; NMeD = CN[C@@H](CC(=O)O)C(=O)O; NMeL = CN[C@@H](CC(C)C)C(=O)O; NMeAib = CNC(C)(C)C(=O)O; Nle = CCCC[C@H](N)C(=O)O; Piperidide = C1CCN(*)CC1; Aze = O=C(O)[C@@H]1CCN1; Sar = CNCC(=O)O
# maps each entry to its IC50
RECORDED_ENDPOINT: IC50 (nM)

COMPOUND: CCCC[C@@H]1NC(=O)[C@H](Cc2cccc(I)c2)NC(=O)CN(C)C(=O)[C@H](Cc2ccc(Cl)cc2)N(C)C(=O)CN(C)C(=O)CN(C)C(=O)[C@H]([C@@H](C)CC)NC(=O)[C@H](CC(C)C)N(C)C(=O)C[C@@H](C(=O)N2CCCCC2)N(C)C(=O)[C@H](CC(C)C)NC(=O)[C@H](Cc2ccc(C(F)(F)F)cc2)N(C)C1=O [Compound 498] ([NMeL]I[Sar][Sar][NMePhe(4-Cl)][Sar][Phe(3-I)][Nle][NMePhe(4-CF3)]L[NMeD]-Piperidide; lactam N-11)
DATA_VALUE: 49
--
COMPOUND: CC[C@H](C)[C@@H]1NC(=O)[C@H](CC(C)C)N(C)C(=O)C[C@@H](C)N(C)C(=O)[C@H](CC(C)C)NC(=O)C(C)(C)N(C)C(=O)[C@H](CC(C)C)NC(=O)[C@H](CCc2ccc(C(F)(F)F)c(F)c2)NC(=O)CN(C)C(=O)[C@H](CC2CCCCC2)N(C)C(=O)CN(C)C(=O)[C@@H]2CCN2C1=O [Compound 905] (cyclo([Aze][Sar][NMeCha][Sar][hPhe(3-F,4-CF3)]L[NMeAib]L[NMedβ3hAla][NMeL]I))
DATA_VALUE: 180

* * *

# maps each entry to its IC50
MEASURED_TARGET: Kras and SOS1 (biotin-tagged human Kras loaded with GDP, His-tagged human SOS1) (Homo sapiens, UniProt P01116, G12D)
Construct: made in house; host or cells: E. coli (stated for Kras only)
PROTOCOL_DESCRIPTION: Protein-protein interaction inhibition between Kras and SOS1 (KrasGl2D-SOS PPI) using AlphaScreen
Format: binding
COND: AlphaScreen; biotin-tagged human Kras loaded with GDP, His-tagged human SOS1; read-out: KRAS G12D-SOS PPI IC50
Starred links: 1 amine or outer side, 2 acyl side, 3 side chain; linkers in the order of their positions; H or OH if unused. Positions of bridges follow the written chain, without caps; N, C: chain ends. Non-standard residues stand in square brackets, D forms with d. Residues, ends and D or L forms follow the SMILES beside them. *: point of attachment. hPhe(3-Cl-4-CF3) = N[C@@H](CCc1ccc(C(F)(F)F)c(Cl)c1)C(=O)O; NMePhe(4-CF3) = CN[C@@H](Cc1ccc(C(F)(F)F)cc1)C(=O)O; hPhe(4-CF3) = N[C@@H](CCc1ccc(C(F)(F)F)cc1)C(=O)O; 3Oxa8azabicyclo(3.2.1)octane = C1CC2COCC1N2*; NMePhe(4-Cl) = CN[C@@H](Cc1ccc(Cl)cc1)C(=O)O; X77 = O=C([C@H](Cc1cc(Br)ccc1Cl)N[*:1])[*:2]; NMeY = CN[C@@H](Cc1ccc(O)cc1)C(=O)O; NMeCha = CN[C@@H](CC1CCCCC1)C(=O)O; NMeChg = CN[C@H](C(=O)O)C1CCCCC1; NMeD = CN[C@@H](CC(=O)O)C(=O)O; NMeL = CN[C@@H](CC(C)C)C(=O)O; d(β3hP) = O=C(O)C[C@H]1CCCN1; NMeV = CN[C@H](C(=O)O)C(C)C; Trifluoroethyl = FC(F)(F)C*; d(β3hA) = C[C@@H](N)CC(=O)O; NMeAbu = CC[C@H](NC)C(=O)O; NMeS = CN[C@@H](CO)C(=O)O; NMeA = CN[C@@H](C)C(=O)O; NMeAib = CNC(C)(C)C(=O)O; Nle = CCCC[C@H](N)C(=O)O; Piperidide = C1CCN(*)CC1; Ac5c = NC1(C(=O)O)CCCC1; Aze = O=C(O)[C@@H]1CCN1; Sar = CNCC(=O)O
RECORDED_ENDPOINT: IC50 (nM)

COMPOUND: CC[C@H](C)[C@@H]1NC(=O)[C@H](CC(C)C)N(C)C(=O)C[C@H]2CCCN2C(=O)[C@H](C(C)C)N(C)C(=O)C2(CCCC2)NC(=O)[C@@H]2CCCN2C(=O)[C@H](CCc2ccc(C(F)(F)F)c(Cl)c2)NC(=O)CN(C)C(=O)[C@H](CC2CCCCC2)N(C)C(=O)[C@@H]2CCN2C(=O)[C@H](C)N(C)C1=O [Compound 1332] (cyclo([Ac5c][NMeV][d(β3hP)][NMeL]I[NMeA][Aze][NMeCha][Sar][hPhe(3-Cl-4-CF3)]P))
DATA_VALUE: 23

COMPOUND: CC[C@H](C)[C@@H]1NC(=O)[C@H](COCC(F)(F)F)N(C)C(=O)C[C@@H](C(=O)N2CCCCC2)N(C)C(=O)[C@H](C2CCCCC2)N(C)C(=O)C2(CCCC2)NC(=O)[C@@H]2CCCN2C(=O)[C@H](CCc2ccc(C(F)(F)F)c(Cl)c2)NC(=O)CN(C)C(=O)[C@H](CC2CCCCC2)N(C)C(=O)CN(C)C(=O)CN(C)C1=O [Compound 518] ([NMeS](Trifluoroethyl)I[Sar][Sar][NMeCha][Sar][hPhe(3-Cl-4-CF3)]P[Ac5c][NMeChg][NMeD]-Piperidide; lactam N-11)
DATA_VALUE: 0.67

COMPOUND: CCCC[C@@H]1NC(=O)[C@H](Cc2cc(Br)ccc2Cl)NC(=O)CN(C)C(=O)[C@H](Cc2ccc(OC)cc2)N(C)C(=O)[C@@H]2CCN2C(=O)[C@H](C)N(C)C(=O)[C@H]([C@@H](C)CC)NC(=O)[C@H](CC)N(C)C(=O)C[C@@H](C(=O)N2CCCCC2)N(C)C(=O)[C@H](CC(C)C)NC(=O)C(C)(C)N(C)C1=O [Compound 1212] ([NMeAbu]I[NMeA][Aze][NMeY](Me)[Sar][X77][Nle][NMeAib]L[NMeD]-Piperidide; lactam N-11)
DATA_VALUE: 120

COMPOUND: CC[C@H](C)[C@@H]1NC(=O)[C@H](CC2CCCCC2)N(C)C(=O)C[C@@H](C)NC(=O)[C@H](CC(C)C)N(C)C(=O)C2(CCCC2)NC(=O)[C@@H]2CCCN2C(=O)[C@H](CCc2ccc(C(F)(F)F)cc2)NC(=O)CN(C)C(=O)[C@H](Cc2ccc(Cl)cc2)N(C)C(=O)CN(C)C(=O)CN(C)C1=O [Compound 578] (cyclo([Ac5c][NMeL][d(β3hA)][NMeCha]I[Sar][Sar][NMePhe(4-Cl)][Sar][hPhe(4-CF3)]P))
DATA_VALUE: 120

COMPOUND: CC[C@H](C)[C@@H]1NC(=O)[C@H](CC)N(C)C(=O)C[C@@H](C(=O)N2C3CCC2COC3)N(C)C(=O)[C@H](C2CCCCC2)N(C)C(=O)C2(CCCC2)NC(=O)[C@@H]2CCCN2C(=O)[C@H](CCc2ccc(C(F)(F)F)c(Cl)c2)NC(=O)CN(C)C(=O)[C@H](Cc2ccc(C(F)(F)F)cc2)N(C)C(=O)CN(C)C(=O)CN(C)C1=O [Compound 1993] ([NMeAbu]I[Sar][Sar][NMePhe(4-CF3)][Sar][hPhe(3-Cl-4-CF3)]P[Ac5c][NMeChg][NMeD]-{3Oxa8azabicyclo(3.2.1)octane}; lactam N-11)
DATA_VALUE: 0.64
